Origin of values: PubChem BioAssay (NCI)

test system: HL-60(TB) leukemia; assay: NCI-60 one-dose screen, 48 h (100 = growth as untreated, 0 = no growth, -100 = all killed); conditions: 10 µM unless noted
Compounds without any hit were thinned out: in the full panel of roughly 83,000, 20% have a hit.
Hi there, I'd appreciate the recorded growth for every entry that follows.
Response body: numeric value in %, unit text excluded.

# growth of C/C(=C\C(=O)O[C@H]1[C@@H]2[C@H](C)CC[C@H]2[C@]2(C)O[C@@]1(C1CCCCC1)C[C@H]2OC(=O)CO)c1ccccc1 = -27.8

Kindly note the recorded growth for CCOc1ccc(-c2cnnn2-c2nonc2-n2cccc2)cc1 , which is -23.8

Looking up CCCOC(=O)C1(O)CCCC1 , I found its growth recorded as 107

The reported value for Cc1ccc(S(=O)(=O)Nc2c(Br)cc(Br)cc2C(N)=O)cc1 in terms of growth is 83

// field: growth; key: COc1ccc2c(c1)/C(=C/c1c(-c3cc(OC)c(OC)c(OC)c3)nc3sccn13)C(=O)N2 ; value = 83.4

Form: compound = S=C(N/N=C/c1cc(Cl)cc(Cl)c1)NC12CC3CC(CC(C3)C1)C2 ; growth = 104

Data point: COc1ccc(CSc2nc3cc(OC)c(OC)cc3c(=O)n2-c2ccc(Cl)cc2)cc1 ; growth = 104

----------
system: HL-60(TB) leukemia; test: NCI-60 one-dose screen, 48 h (100 = growth as untreated, 0 = no growth, -100 = all killed); conditions: 10 µM unless noted
Compounds without any hit were thinned out: in the full panel of roughly 83,000, 20% have a hit.
Recorded metric: growth (%)
Please respond with the number in % and leave the unit unwritten.

The compound listed as Cc1cccc[n+]1C1c2ccccc2-c2ccccc21 has a reported growth of 92

The recorded growth for CCCCCCCCCCOc1ccc(C(=O)Oc2ccc(CSP3(=O)OCC4OC(n5ccc(=O)[nH]c5=O)C(F)C4OP(=O)(O)OCC4OC(n5cnc6c(N)ncnc65)C(F)C4O3)cc2)cc1 (centres undefined) is -12.8

The recorded growth for entry Cc1ccc(S(=O)(=O)c2ccc3[nH]c(=O)[nH]c(=O)c3c2)cc1 equals 89.3

Value of measured growth for the entry O=c1c2cc(F)ccc2sc2c(NCCCN3CCCC3)nc3ccccc3c12 : 13.9

----------
tested on: RXF 393 renal; test: NCI-60 one-dose screen, 48 h (100 = growth as untreated, 0 = no growth, -100 = all killed); details: 10 µM unless noted
About 83,000 compounds went through this panel and 20% of them were active in at least one assay; those are over-represented in the sample as a whole.
Labelling: growth reported below 90% becomes True; at or above becomes False.

Does the reported growth of the following compound sit strictly below 90%? COC(=O)C(=[N+]=[N-])C(=O)OC False

Hello, I'm reviewing records and need to know if growth of C[CH2][Pb]([CH2]C)([CH2]C)[O]C(=O)COC is below 90%. Could you check? True

Check if growth falls below 90% for CC(=O)O[C@@H]1C2=C(C)C3(CC3)[C@@](C)(O)C(=O)C2=C[C@@]1(C)CO . True

Given CCOc1cc(/C=N\Nc2nnc(C)n2N)c(C)cc1N(CCCl)CCCl , is recorded growth strictly lower than 90%? True

Record CCC1([N+](=O)[O-])COP(=O)(NCc2cccnc2)OC1 (configuration not stated) : is its growth strictly below 90%? False

Just wondering, is growth of CC1(C)N=C(N)N=C(N)N1c1ccc(OCCCCOc2ccc(S(=O)(=O)F)cc2)c(Cl)c1 below 90%? True

Given the entry c1ccc([As]=[As]c2ccccc2)cc1 (configuration not stated) , would its reported growth be below 90%? True

For CCOC(=O)/C(C#N)=C/c1ccc(N(CCCl)CCCl)cc1 , is the recorded growth below the cut-off of 90%? False

growth strictly < 90% for this compound? CC(C)CCC1(CCO)C(=O)NC(=S)NC1=O False

Given FC(F)=C(F)c1ccccc1 , is recorded growth strictly lower than 90%? False

Take the compound O=c1cc[nH]c(=O)o1 and say whether its growth is less than 90%. False
